Test system: 786-O (renal cell carcinoma) cells
methodNotes: Cell viability (CellTiter Glo) assay, inhibition of 786-O cell proliferation
Type: cell-based
conditionsUsed: Homo sapiens, 786-0; 786-O cells, 72 hours, CellTiter Glo; read-out: IC50, inhibition of 786-O cell proliferation
observationType: IC50

molecule="CC(C)N(CC(F)(F)F)C(=N)OCc1ncc2c(n1)N(c1ccc(N3CCOCC3)cc1)C(=O)C21CC1 [Compound E162]" observationtype=IC50 recordedresult="500 to 5000 nM"
molecule="CNc1nc(COC(=N)N2CCCCC2C(F)(F)F)nc2c(-c3ccc(N4CCOCC4)cc3OC)csc12 (stereo not drawn) [Compound E171]" observationtype=IC50 recordedresult="< 100 nM"
molecule="CNc1nc(COC(=N)N2CCC[C@@H]2C(F)(F)F)nc2c1C(C)(C)C(=O)N2c1ccc(N2CCOCC2)cc1 [Compound E114]" observationtype=IC50 recordedresult="< 100 nM"
molecule="CC1(C)C(=O)N(c2ccc(N3CCOCC3)c(F)c2)c2nc(COC(=N)N3CCC[C@@H]3C(F)(F)F)nc(NC3CC3)c21 [Compound E200]" observationtype=IC50 recordedresult="< 100 nM"
molecule="N=C(OCc1nc(N)c2c(n1)N(c1cnc(N3C4CCC3COC4)nc1)C(=O)C21CCCC1)N1CCC[C@@H]1C(F)(F)F [Compound E93]" observationtype=IC50 recordedresult="< 100 nM"
molecule="C[C@@H]1CN(c2ccc(N3CC4(CCC4)c4c(NCC(F)(F)F)nc(COC(=N)N5CCC[C@@H]5C(F)(F)F)nc43)cn2)C[C@H](C)O1 [Compound E21]" observationtype=IC50 recordedresult="< 100 nM"

* * *

Entries and their IC50 values follow.
Tested on: 786-O (renal cell carcinoma) cells
methodNotes: Cell viability (CellTiter Glo) assay, inhibition of 786-O cell proliferation
Type: cell-based
conditionsUsed: Homo sapiens, 786-0; 786-O cells, 72 hours, CellTiter Glo; read-out: IC50, inhibition of 786-O cell proliferation
observationType: IC50

compound="C[C@@H]1C[C@H](C)CN(c2ccc(N3C(=O)C(C)(C)c4c(N)nc(COC(=N)N5CCC[C@@H]5C(F)(F)F)nc43)cc2F)C1 [Compound E35]" assaysystem="786-O (renal cell carcinoma) cells" observationtype=IC50 recordedresult="< 100 nM"
compound="CC(C)Nc1nc(COC(=N)N2CCC[C@@H]2C(F)(F)F)nc2c1C1(CCCC1)C(=O)N2c1cnc(N2CCOCC2)nc1 [Compound E79]" assaysystem="786-O (renal cell carcinoma) cells" observationtype=IC50 recordedresult="100 to 500 nM"
compound="CC1(C)C(=O)N(c2ccc(N3CCOCC3)cc2)c2nc(COC(=N)N3CCCC3C(F)(F)F)nc(N)c21 (stereo not drawn) [Compound E170]" assaysystem="786-O (renal cell carcinoma) cells" observationtype=IC50 recordedresult="< 100 nM"
compound="C[C@@H]1CN(c2ncc(N3C(=O)C(C)(C)c4c(NC5CCC5)nc(COC(=N)N5CCOCC5C(F)(F)F)nc43)cn2)C[C@H](C)O1 (stereo partly drawn) [Compound E219]" assaysystem="786-O (renal cell carcinoma) cells" observationtype=IC50 recordedresult="100 to 500 nM"
compound="CNc1nc(COC(=N)N2CCCC2C(F)(F)F)nc2c1C(C)(C)C(=O)N2c1ccc(N2C[C@@H](C)O[C@@H](C)C2)nc1 (stereo partly drawn) [Compound E113]" assaysystem="786-O (renal cell carcinoma) cells" observationtype=IC50 recordedresult="< 100 nM"
compound="N=C(OCc1nc(NC2CC2)c2c(n1)N(c1ccc(N3CCOCC3)cc1)C(=O)C21CCCCC1)N1CCC[C@@H]1C(F)(F)F [Compound E71]" assaysystem="786-O (renal cell carcinoma) cells" observationtype=IC50 recordedresult="< 100 nM"

Each recorded value in this set is attributed to patent US20250304571A1.
